experimentalSystem: ROS (Homo sapiens, UniProt P08922)
Sequence (P08922 28-2347): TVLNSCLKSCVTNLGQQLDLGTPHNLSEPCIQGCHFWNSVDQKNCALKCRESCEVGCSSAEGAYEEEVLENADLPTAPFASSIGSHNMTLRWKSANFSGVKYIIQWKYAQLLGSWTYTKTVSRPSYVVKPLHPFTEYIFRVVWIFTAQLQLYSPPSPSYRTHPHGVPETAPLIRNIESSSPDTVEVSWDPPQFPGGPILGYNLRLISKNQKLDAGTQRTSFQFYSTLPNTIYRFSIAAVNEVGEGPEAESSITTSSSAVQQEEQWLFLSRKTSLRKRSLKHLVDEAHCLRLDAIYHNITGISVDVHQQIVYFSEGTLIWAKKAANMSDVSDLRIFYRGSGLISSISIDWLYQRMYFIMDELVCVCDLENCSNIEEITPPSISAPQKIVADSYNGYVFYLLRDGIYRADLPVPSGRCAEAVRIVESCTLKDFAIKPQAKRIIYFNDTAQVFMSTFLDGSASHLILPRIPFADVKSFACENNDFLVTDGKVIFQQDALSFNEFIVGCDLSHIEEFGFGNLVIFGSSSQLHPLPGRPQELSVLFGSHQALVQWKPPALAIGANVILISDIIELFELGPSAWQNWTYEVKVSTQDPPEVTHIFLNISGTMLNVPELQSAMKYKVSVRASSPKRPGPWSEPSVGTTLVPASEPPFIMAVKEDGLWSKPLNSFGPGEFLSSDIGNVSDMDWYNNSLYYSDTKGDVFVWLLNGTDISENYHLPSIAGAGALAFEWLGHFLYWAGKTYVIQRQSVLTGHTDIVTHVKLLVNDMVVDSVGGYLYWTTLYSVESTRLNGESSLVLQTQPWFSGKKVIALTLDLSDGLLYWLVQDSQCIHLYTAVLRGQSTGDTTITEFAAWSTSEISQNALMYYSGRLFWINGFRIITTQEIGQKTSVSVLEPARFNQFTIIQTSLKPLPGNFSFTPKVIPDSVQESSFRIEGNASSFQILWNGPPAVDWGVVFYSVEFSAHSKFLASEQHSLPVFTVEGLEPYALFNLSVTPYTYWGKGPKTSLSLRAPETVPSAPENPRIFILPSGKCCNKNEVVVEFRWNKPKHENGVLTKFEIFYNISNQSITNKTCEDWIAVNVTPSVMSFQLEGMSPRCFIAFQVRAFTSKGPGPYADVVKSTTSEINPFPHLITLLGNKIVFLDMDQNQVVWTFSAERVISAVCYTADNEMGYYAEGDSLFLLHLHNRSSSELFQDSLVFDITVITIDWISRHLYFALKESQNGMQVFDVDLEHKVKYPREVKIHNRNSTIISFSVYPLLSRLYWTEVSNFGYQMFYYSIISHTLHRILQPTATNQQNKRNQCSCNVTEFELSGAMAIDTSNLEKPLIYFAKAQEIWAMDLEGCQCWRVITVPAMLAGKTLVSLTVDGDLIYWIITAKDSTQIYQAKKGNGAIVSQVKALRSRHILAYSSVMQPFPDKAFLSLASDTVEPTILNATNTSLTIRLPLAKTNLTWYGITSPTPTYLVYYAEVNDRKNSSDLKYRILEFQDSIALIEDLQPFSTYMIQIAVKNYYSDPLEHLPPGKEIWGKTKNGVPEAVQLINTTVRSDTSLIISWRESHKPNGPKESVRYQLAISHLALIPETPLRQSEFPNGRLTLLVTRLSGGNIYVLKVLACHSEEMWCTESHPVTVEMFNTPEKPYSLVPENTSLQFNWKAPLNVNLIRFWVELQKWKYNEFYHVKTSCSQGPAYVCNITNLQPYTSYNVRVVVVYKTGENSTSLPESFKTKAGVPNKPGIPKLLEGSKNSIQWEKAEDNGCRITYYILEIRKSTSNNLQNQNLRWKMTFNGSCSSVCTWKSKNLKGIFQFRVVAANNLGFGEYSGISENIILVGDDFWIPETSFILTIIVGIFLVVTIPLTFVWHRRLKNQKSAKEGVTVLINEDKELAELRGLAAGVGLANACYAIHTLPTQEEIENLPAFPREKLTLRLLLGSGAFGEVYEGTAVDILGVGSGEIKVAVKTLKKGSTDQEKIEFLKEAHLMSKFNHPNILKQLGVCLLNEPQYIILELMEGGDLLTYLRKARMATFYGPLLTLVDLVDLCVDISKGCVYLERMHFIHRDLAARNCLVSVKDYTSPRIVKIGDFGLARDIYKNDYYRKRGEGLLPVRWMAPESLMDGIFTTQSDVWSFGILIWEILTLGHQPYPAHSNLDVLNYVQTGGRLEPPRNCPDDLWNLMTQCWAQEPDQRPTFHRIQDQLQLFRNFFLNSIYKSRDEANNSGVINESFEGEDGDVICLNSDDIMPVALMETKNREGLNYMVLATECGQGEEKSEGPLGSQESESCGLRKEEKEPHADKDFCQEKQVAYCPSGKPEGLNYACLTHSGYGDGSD
assayRemarks: In vitro ROS enzymatic reaction assay (HTRF, Cisbio)
Type: biochemical
Design: ROS or EGFR enzyme, 0.008 ng/ul
assayConditions: ROS kinase, compound at 10 uM
quantityName: Kinase Inhib. 10 uM (%)

Recorded results for 3 compounds are shown here.
[[record]]
compound = "O=c1cc(Oc2ccccc2)c(-c2nc[nH]n2)nn1-c1ccccc1 [drawing 228]"
quantityname = "Kinase Inhib. 10 uM (%)"
unitsofmeasure = "%"
experimentalvalue = 20.40

[[record]]
compound = "CCOC(Nc1cc(-c2sccc2-n2c(C)ccc2C)[nH]n1)OCC [drawing 227]"
quantityname = "Kinase Inhib. 10 uM (%)"
unitsofmeasure = "%"
experimentalvalue = 27.57

[[record]]
compound = "Cc1[nH]c2nc(NCc3cccc([N+](=O)[O-])c3)nn2c(=O)c1Cc1ccccc1 [drawing 222]"
quantityname = "Kinase Inhib. 10 uM (%)"
unitsofmeasure = "%"
experimentalvalue = 23.83


A: CC(C)(C)c1cc(C(=O)NNc2cccc(Cl)c2)n(Cc2ccccc2)n1 [drawing 252]
B: CCN(CCO)c1nc(Nc2ccc(F)cc2)c2cnn(-c3ccccc3)c2n1 [drawing 249]
query: Identify the item whose Kinase Inhib. 10 uM (%) is the smaller number: A or B Your choice should be expressed through its label.
result: A
